Biological target: GalNAc(b1-4)GlcNAc(b1-3)GalNAc(b1-4)GlcNAc
Test: glycan array binding signal (z-score within array); higher = stronger binding
Conditions: glycan notation: IUPAC condensed, linker removed
About 410 targets per protein were measured; listed, in parts, are those with the strongest signals and a random draw of the rest.
# reported glycan array binding signal (z-score); entries follow
Enter the number alone.

Lookup: Tell me measured glycan array binding signal (z-score) for HA-11100 (Pseudomonas aeruginosa), Q02G51_PSEAB (protein) QFNPNEIKISQQGKTTLIDQSTQRAIINWKGFDVSADEAVRFNQPGVTSSTLNRVTAGQESVIAGRISAPGQVIIYNSNGVVFSGSAKVDVGSLITTTANISDEHFRQGKLIFDQPGNPDARIVNDGSISVAEKGLAAFVAPSVANNGVINARLGTVAMAAGNAATIDLYG please.
Found: 0.008

Next:
Lookup: Tell me measured glycan array binding signal (z-score) for Wzz (Escherichia coli) (protein) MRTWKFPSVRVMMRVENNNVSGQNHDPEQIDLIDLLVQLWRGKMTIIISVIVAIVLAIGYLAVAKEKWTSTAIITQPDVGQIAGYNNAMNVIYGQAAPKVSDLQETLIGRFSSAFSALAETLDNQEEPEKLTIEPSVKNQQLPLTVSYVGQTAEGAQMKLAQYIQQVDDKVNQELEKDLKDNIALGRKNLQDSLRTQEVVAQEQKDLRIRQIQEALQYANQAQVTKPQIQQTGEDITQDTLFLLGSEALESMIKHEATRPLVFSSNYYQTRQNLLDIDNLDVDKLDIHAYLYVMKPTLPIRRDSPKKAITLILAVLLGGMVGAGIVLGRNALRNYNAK please.
Found: -0.667

Lookup: Tell me measured glycan array binding signal (z-score) for LecB PA14 (Pseudomonas aeruginosa) (protein) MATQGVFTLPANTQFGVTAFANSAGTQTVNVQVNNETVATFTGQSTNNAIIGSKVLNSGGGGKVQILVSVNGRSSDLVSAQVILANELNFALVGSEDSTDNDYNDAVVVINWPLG please.
Found: -0.272

Lookup: Tell me measured glycan array binding signal (z-score) for PfulAvr4 (Pseudocercospora fuligena) (protein) HHHHHHDYKDDDDKTYVQDKTPAFVCPAADIKTTKCLGPKDCLYPSPKTCNGYIQCSPADDSYLTGIIHEMPCPSGLLWNDNKKWCDWPENTTCGLVKSAGATEVDATKQGPTPGKYHG please.
Found: -0.127
